switch fluorescence ratio: recorded values
Tested on: ATP;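 note: ATP exposure 15 min at 22 °C before imaging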
Experiment: switch fluorescence ratio, 500 uM ATP over buffer (Cy3 cluster intensity, sum of 5 cycles each) (fold (ratio)); higher = stronger signal-on switching upon ATP binding; sequences stand for … in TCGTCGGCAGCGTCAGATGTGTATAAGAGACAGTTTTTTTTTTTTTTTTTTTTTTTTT…TC
Details: aptamer strand: ATP DNA aptamer (quencher-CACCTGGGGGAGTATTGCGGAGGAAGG + anchor), 100 nM annealed; ATP concentration: 500 uM
No unit in the answer, please; the number alone is enough.

Known results for sequences:
ATAGAATTAA; 0.989
ACTTAGCGGT; 1.07
CGGTGCATGG; 0.991
AGGGGGAGTG; 0.987
CAGTTTAATG; 1.01
CAATTCGATA; 1.02

Let's switch to this sequence now.
Return switch fluorescence ratio for the following sequence: GTTGGAGGAG
0.992
